# experimental target: Voltage-gated potassium channel subunit beta-2 (Rattus norvegicus)
# test description: KvBeta positive modulators, primary screen, biochemical, NADPH fluorescence (AID 623);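 further: fluorescence intensity change per second fitted from 20 to 320 s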
# run conditions: Recombinant KvBeta, NADPH fluorescence decrease slope, 10 min; at 10 µM; active compounds read low
Entries and their NADPH fluorescence slope
endpoint name: NADPH fluorescence slope

compound: COc1cc(N2C(=O)CSC23C(=O)Nc2ccccc23)cc(OC)c1OC (configuration not stated)
endpoint name: NADPH fluorescence slope
value observed: 6.8e-06

compound: COC(=O)c1ccc(=O)n(Cc2ccco2)c1
endpoint name: NADPH fluorescence slope
value observed: -1.8e-06

compound: N#CCCSc1nc(N2CCOCC2)c2c(c1C#N)CCCC2
endpoint name: NADPH fluorescence slope
value observed: 1.4e-05

compound: CN(C1CCS(=O)(=O)C1)S(=O)(=O)c1cccc2nsnc12 (configuration not stated)
endpoint name: NADPH fluorescence slope
value observed: -6.5e-05

compound: Nc1nnc(CSCc2ccc(F)cc2)s1
endpoint name: NADPH fluorescence slope
value observed: -2.4e-05

compound: CC(C)OC(=O)c1sc2nc3c(cc2c1N)C(=O)CCC3
endpoint name: NADPH fluorescence slope
value observed: -9.2e-05

compound: CC(C)OC(=O)C(C#N)c1nc2ccccc2nc1N1CCCC1 (configuration not stated)
endpoint name: NADPH fluorescence slope
value observed: -1.4e-05
